Hey, just so you know, these numbers are from PubChem BioAssay (NCI).

Test system: A549/ATCC NSCLC
Assay: NCI-60 one-dose screen, 48 h (100 = growth as untreated, 0 = no growth, -100 = all killed)
Conditions: 10 µM unless noted
The panel holds about 83,000 compounds, 20% with a hit somewhere; the sample as a whole holds those more often.
assay.readout: growth (%)
Provide the reading as a plain figure in %.

Consider the worked cases shown below.
Req: Give its growth value. Item: C[C@H](NC(=O)c1c(N)nn2cccnc12)c1cc2cccc(C#Cc3cnn(C)c3)c2c(=O)n1-c1ccccc1
Resp: 20.3

Req: Give its growth value. Item: CC[C@@H]1C(=O)N(C)c2cnc(Nc3ccc(C(=O)NC4CCN(C)CC4)cc3OC)nc2N1C1CCCC1
Resp: 3.29

Req: Give its growth value. Item: CO[C@H]1C[C@@H]2CC[C@@H](C)[C@@](O)(O2)C(=O)C(=O)N2CCCC[C@H]2C(=O)O[C@H]([C@H](C)C[C@@H]2CC[C@@H](OC(=O)C(C)(CO)CO)[C@H](OC)C2)CC(=O)[C@H](C)/C=C(\C)[C@@H](O)[C@@H](OC)C(=O)[C@H](C)C[C@H](C)\C=C/C=C/C=C/1C
Resp: 22

Req: Give its growth value. Item: N#CC(C#N)=NO
Resp: 73.4

Req: Give its growth value. Item: COc1ccc2c(CCCc3ccc(Cl)cc3Cl)c3[n+](cc2c1OC)CCc1cc2c(cc1-3)OCO2
Resp: 11.9

Req: Give its growth value. Item: CCN1CCN(Cc2ccc(NC(=O)Nc3nc(-c4cc(OC)c(OC)c(OC)c4)cs3)cc2C(F)(F)F)CC1
Resp: 26.1

Would you kindly look at the next entry?
Req: Give its growth value. Item: CCCCOc1nc2cc(Cl)ccc2cc1/C=C/c1cc(/C=C/c2cc3ccc(Cl)cc3nc2OCCCC)n(-c2ccccc2)n1
Resp: 75.4

====

System: EKVX NSCLC
Assay: NCI-60 one-dose screen, 48 h (100 = growth as untreated, 0 = no growth, -100 = all killed)
Conditions: 10 µM unless noted
Compounds without any hit were thinned out: in the full panel of roughly 83,000, 20% have a hit.
API: label(entry) gives True if the entry's growth is strictly smaller than 20%; on equality or larger values it gives False.

A selection of reference data follows.
Req: Input CC(=O)c1c(C)c2cnc(Nc3ccc(N4CCNCC4)cn3)nc2n(C2CCCC2)c1=O ; condition: growth strictly below 20%. Does it hold?
Resp: False

Req: Input O=c1[nH]c([C@@H]2CCCN2)nc2c1oc1ccc(Cl)cc12 ; condition: growth strictly below 20%. Does it hold?
Resp: False

Req: Input CC(=Nc1ccccc1)C1=C(O)C(Cc2ccccc2)NC1=O (configuration not stated) ; condition: growth strictly below 20%. Does it hold?
Resp: False

More entries:
Req: Input CSc1nc2ncnc(SC)c2[nH]1 ; condition: growth strictly below 20%. Does it hold?
Resp: False

Req: Input Cc1cc2c(-c3nc4ccccn4c3NC3CCCCC3)c(O)c(O)cc2c(O)c1-c1c(C)cc2c(-c3nc4ccccn4c3NC3CCCCC3)c(O)c(O)cc2c1O ; condition: growth strictly below 20%. Does it hold?
Resp: False

Req: Input COC(=O)c1[nH]cnc1/N=N/N(C)CCO ; condition: growth strictly below 20%. Does it hold?
Resp: False

Req: Input Cn1cc(-c2cnn3c(N)c(Br)c([C@@H]4CCCNC4)nc23)cn1 ; condition: growth strictly below 20%. Does it hold?
Resp: False

Req: Input COc1cc2ncnc3c2cc1OCCCCCN(C)Cc1ccc(Br)cc1N3 ; condition: growth strictly below 20%. Does it hold?
Resp: False

Req: Input C#Cc1cccc(Nc2ncnc3cc(OC)c(OCCCCCCC(=O)NO)cc23)c1 ; condition: growth strictly below 20%. Does it hold?
Resp: False

Req: Input CN1C/C=C\CCOc2cccc(c2)-c2ccnc(n2)Nc2cccc(c2)C1 ; condition: growth strictly below 20%. Does it hold?
Resp: True

Req: Input Cc1ccc(NC(=O)NC(=O)CSc2nc3ccccc3nc2C)cc1 ; condition: growth strictly below 20%. Does it hold?
Resp: False

Req: Input O=C1OCC2=C1C(c1cccc(F)c1)c1cc3c(cc1N2CCO)OCCO3 (configuration not stated) ; condition: growth strictly below 20%. Does it hold?
Resp: False

Req: Input Cc1nn(-c2ccccc2)c2c1N=c1s/c(=C\c3cn(-c4ccccc4)nc3-c3ccc(Cl)cc3)c(=O)n1C(C)N2 (configuration not stated) ; condition: growth strictly below 20%. Does it hold?
Resp: False

Req: Input CCCC(=O)OCC1OC(n2cnc3c(=S)nc[nH]c32)C(OC(=O)CCC)C1OC(=O)CCC (configuration not stated) ; condition: growth strictly below 20%. Does it hold?
Resp: False

Req: Input S=C(NCc1ccc2c(c1)OCO2)N1CCN(c2ncnc3c2oc2ccccc23)CC1 ; condition: growth strictly below 20%. Does it hold?
Resp: False

Req: Input CO[C@H]1C[C@@H]2CC[C@@H](C)[C@@](O)(O2)C(=O)C(=O)N2CCCC[C@H]2C(=O)O[C@H]([C@H](C)C[C@@H]2CC[C@@H](OCCO)[C@H](OC)C2)CC(=O)[C@H](C)/C=C(\C)[C@@H](O)[C@H](OC)C(=O)[C@H](C)C[C@H](C)\C=C/C=C/C=C/1C ; condition: growth strictly below 20%. Does it hold?
Resp: False

Req: Input Nc1ncnc2c1c(-c1cccc(OCc3ccccc3)c1)cn2C1CC(CN2CCC2)C1 (configuration not stated) ; condition: growth strictly below 20%. Does it hold?
Resp: False

Req: Input C=CC(=O)Nc1cccc(Oc2nc(Nc3ccc(N4CCN(C)CC4)cc3)nc3ccsc23)c1 ; condition: growth strictly below 20%. Does it hold?
Resp: True

Req: Input N#CC[C@H](C1CCCC1)n1cc(-c2ncnc3[nH]ccc23)cn1 ; condition: growth strictly below 20%. Does it hold?
Resp: False

Req: Input CCc1cnn2c(NCc3ccc[n+]([O-])c3)cc(N3CCCC[C@H]3CCO)nc12 ; condition: growth strictly below 20%. Does it hold?
Resp: True

Req: Input C1=C\COCc2cc(ccc2OCCN2CCCC2)Nc2nccc(n2)-c2cccc(c2)COC/1 ; condition: growth strictly below 20%. Does it hold?
Resp: True

====

Tested on: SK-MEL-5 melanoma
Test: NCI-60 one-dose screen, 48 h
Conditions: 10 µM unless noted
Description: Growth inhibition of the SK-MEL-5 human tumor cell line is measured as a screen for anti-cancer activity. Cells are grown in 96 well plates and exposed to the test compound for 48 hours. Compounds are tested at a single concentration, which is 10^-5 M for most compounds. The reported endpoint is percent growth (GI% or GIPRCNT), where numbers from 0 - 100% represent growth inhibition, and numbers from -100% - 0 represent cell death. For example, a value of 40 represents 60% growth inhibition. […]
This is part of a sample that, as a whole, favours compounds with a hit. Of some 83,000 tested, about 20% had one in any assay. The source made the active and inactive calls. The calls were made as follows: active = growth percent below 10; inactive = the rest.
Outcome field: choose from y = active, n = inactive

Req: Identify the outcome logged in this assay for the compound shown: c1cc(OCCN2CCCCC2)cc(-c2n[nH]c3ccc(-c4ncn[nH]4)cc23)c1
Resp: n

Req: Identify the outcome logged in this assay for the compound shown: Cc1cc(N(CCNc2ccnc3cc(Cl)ccc23)Cc2cccs2)nc(Cl)n1
Resp: y

Now for a further compound.
Req: Identify the outcome logged in this assay for the compound shown: COc1cc2c(cc1OCCCCCCN1CCN(c3ncnc4ccccc34)CC1)N=CC1CCCN1C2=O (stereo not drawn)
Resp: y

====

System: NCI-H522 lung
Test: NCI-60 one-dose screen, 48 h (100 = growth as untreated, 0 = no growth, -100 = all killed)
Conditions: 10 µM unless noted
Compounds without any hit were thinned out: in the full panel of roughly 83,000, 20% have a hit.
assay.readout: growth (%)
Provide the reading as a plain figure in %.

Consider the worked cases shown below.
Req: Give its growth value. Item: COc1cc2c(cc1OCCCCCN1CCN(c3ncnc4ccccc34)CC1)N=CC1CCCN1C2=O (stereo unspecified)
Resp: -55.4

Req: Give its growth value. Item: CN1CCN(CCCOc2cccc3nc(Nc4ccc(Cl)c(C(F)(F)F)c4)ccc23)CC1
Resp: -40.6

Req: Give its growth value. Item: O=C1C=CC2(NN=C(c3ccccc3)N2c2ccc(Cl)cc2)c2cccc(O)c21 (stereo unspecified)
Resp: 51.1

Req: Give its growth value. Item: COc1cc2c(cc1O)c(=O)n(CCN(C)C)c1c3cc4c(cc3ncc21)OCO4
Resp: -37

Req: Give its growth value. Item: CC(C)(C)C(=O)OCOP(=O)(OCOC(=O)C(C)(C)C)C1CCCN(OC(=O)c2ccccc2)C1=O (stereo unspecified)
Resp: 12.9

Would you kindly look at the next entry?
Req: Give its growth value. Item: COc1cc(OC)c(/C=C/S(=O)(=O)Cc2ccc(OC)c(NCC(=O)O)c2)c(OC)c1
Resp: -18
